Measured growth, listed per entry for reference.
- Tested on: UACC-257 melanoma
- PROTOCOL: NCI-60 one-dose screen, 48 h (100 = growth as untreated, 0 = no growth, -100 = all killed)
- STATED CONDITIONS: 10 µM unless noted
This is part of a sample that, as a whole, favours compounds with a hit. Of some 83,000 tested, about 20% had one in any assay.
Number in %, nothing else.

Reference set (5 entries):
O=C(NCCCNc1cc(-c2cn(-c3ccccc3)nc2-c2cccc(O)c2)ccn1)c1cccc(O)c1 = 58.4
CCc1ccccc1-n1c(N)c(C#N)c(-c2ccc(N(C)C)cc2)c(C#N)c1=O = 101
O=C(O)CN1C(=O)CCC1=O = 104
Cc1cccc(Cc2cnc(NC(=O)c3ccc4nnsc4c3)s2)c1 = 95.4
Cc1nn(-c2ccccc2)c(Cl)c1/C=C(/NC(=O)c1ccccc1)c1nc2ccccc2[nH]1 = 90.1

// fetch UACC-257 melanoma growth for `COc1cccc(Nc2nccc(Nc3ccc4[nH]ncc4c3)n2)c1`
11.2

Another compound to check: `COc1cc(N2C(=O)c3nccnc3C2=O)cc(OC)c1OC`
105

Another compound to check: `CCOC(=O)c1c(/C=C/C(=O)O)nc2ccccc2c1/C=C/c1ccccc1`
49.6

Another compound to check: `C[C@@H]1N=C(c2ccc3ccccc3n2)Nc2nc3ccccn3c2C1=O`
117

Another compound to check: Nc1nc(N)c2c(n1)NC(c1ccccc1)C1CCc3ccccc3C1=N2 (stereo unspecified)
19.7

Another compound to check: CC1CC2Oc3ccc(Cl)cc3C(=O)N2O1 (stereo unspecified)
118
